Reference source: BigSolDB 2.1

# condition.set: in n-propanol, 313.15 K
measured.attribute: solubility (mole fraction)
Answers are plain numbers.

# lookup: solubility (mole fraction) of Nc1cnc(Cl)cn1
0.00291

* * *

# condition.set: in n-propanol, 298.15 K
measured.attribute: solubility (mole fraction)
Give bare numbers.

Entry Nc1cnc(Cl)cn1 : reported solubility (mole fraction) = ?
0.00181

* * *

# condition.set: in ethylene glycol, 283.15 K
measured.attribute: solubility (mole fraction)
Numbers only.

Need solubility (mole fraction) of Nc1cnc(Cl)cn1 , thanks.
0.000398

* * *

# condition.set: in ethylene glycol, 313.15 K
measured.attribute: solubility (mole fraction)
One number for each entry.

Which solubility (mole fraction) is listed for Nc1cnc(Cl)cn1 ?
0.00117

* * *

# condition.set: in ethylene glycol, 303.15 K
measured.attribute: solubility (mole fraction)
Give bare numbers.

Give its solubility (mole fraction) value. Item: Nc1cnc(Cl)cn1
0.000868

* * *

# condition.set: in water, 298.15 K
measured.attribute: solubility (mole fraction)

Give its solubility (mole fraction) value. Item: Nc1cnc(Cl)cn1
8.88e-05

* * *

# condition.set: in ethanol, 313.15 K
measured.attribute: solubility (mole fraction)
Give bare numbers.

Sample Nc1cnc(Cl)cn1 — what was its solubility (mole fraction)?
0.00961

* * *

# condition.set: in methanol, 283.15 K
measured.attribute: solubility (mole fraction)

What value of measured solubility (mole fraction) is listed for Nc1cnc(Cl)cn1 ?
0.00442

* * *

# condition.set: in n-propanol, 303.15 K
measured.attribute: solubility (mole fraction)
Answers are plain numbers.

Given the molecule Nc1cnc(Cl)cn1 , what is its reported solubility (mole fraction)?
0.00214
